# experimental target: human ether-à-go-go-related gene (hERG) potassium channel (human);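 note: peak tail current of the secondary pulse compared with the same well before compound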
# Sequence (Q12809 whole entry, looked up): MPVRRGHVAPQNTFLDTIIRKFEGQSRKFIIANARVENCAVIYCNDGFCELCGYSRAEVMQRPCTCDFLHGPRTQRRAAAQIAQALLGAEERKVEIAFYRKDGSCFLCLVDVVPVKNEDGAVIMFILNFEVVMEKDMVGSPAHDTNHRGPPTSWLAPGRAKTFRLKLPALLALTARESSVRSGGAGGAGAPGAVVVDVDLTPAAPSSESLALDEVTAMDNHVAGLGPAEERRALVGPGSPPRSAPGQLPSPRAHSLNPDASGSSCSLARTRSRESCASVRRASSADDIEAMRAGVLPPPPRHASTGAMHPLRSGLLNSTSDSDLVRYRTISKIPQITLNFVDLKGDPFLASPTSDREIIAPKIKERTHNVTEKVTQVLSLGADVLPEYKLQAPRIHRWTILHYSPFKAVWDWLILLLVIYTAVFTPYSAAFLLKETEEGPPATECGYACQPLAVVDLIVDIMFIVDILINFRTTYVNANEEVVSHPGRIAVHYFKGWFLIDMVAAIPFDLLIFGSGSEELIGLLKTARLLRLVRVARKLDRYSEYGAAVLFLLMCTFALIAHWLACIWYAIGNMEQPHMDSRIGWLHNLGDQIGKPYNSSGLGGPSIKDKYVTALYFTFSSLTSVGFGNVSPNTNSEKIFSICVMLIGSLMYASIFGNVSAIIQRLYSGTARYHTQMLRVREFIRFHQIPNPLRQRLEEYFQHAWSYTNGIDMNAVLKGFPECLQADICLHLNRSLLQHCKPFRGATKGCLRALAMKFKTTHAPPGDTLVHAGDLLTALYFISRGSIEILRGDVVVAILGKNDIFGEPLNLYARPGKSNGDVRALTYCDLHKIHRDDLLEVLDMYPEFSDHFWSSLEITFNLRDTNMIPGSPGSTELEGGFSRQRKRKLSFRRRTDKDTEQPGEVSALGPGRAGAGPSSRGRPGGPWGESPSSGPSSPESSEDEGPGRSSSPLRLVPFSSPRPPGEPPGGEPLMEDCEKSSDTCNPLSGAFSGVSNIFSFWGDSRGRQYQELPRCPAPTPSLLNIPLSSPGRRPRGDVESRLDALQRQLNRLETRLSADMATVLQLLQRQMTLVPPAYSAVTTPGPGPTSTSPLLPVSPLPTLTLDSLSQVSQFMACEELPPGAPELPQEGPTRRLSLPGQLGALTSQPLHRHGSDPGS
# experiment: primary screen, population patch clamp on CHO cells stably expressing hERG; higher = less effect of the substance
Out of some 310,000 compounds screened, about 14,000 (4.5%) showed an effect of 50% or more. Effects have a minus sign here. This excerpt belongs to a sample that is enriched for strong results.
observable: hERG current change (%, negative = inhibition) at 10uM (%)
Numbers only; they are read as %.

A selection of reference data follows.
compound=O=C(Nc1ccccc1)OCCOc1ccccc1 experimental_target="human ether-à-go-go-related gene (hERG) potassium channel (human)" test_value=-17.8
compound="CC1CC(C)CN(S(=O)(=O)c2ccc3c(c2)oc(=O)n3CC(=O)NCc2cccnc2)C1 (stereo not shown)" experimental_target="human ether-à-go-go-related gene (hERG) potassium channel (human)" test_value=-17.2
compound=O=C(Nc1ccc([N+](=O)[O-])cc1)c1cc(-c2ccccn2)nc2c(Cl)cccc12 experimental_target="human ether-à-go-go-related gene (hERG) potassium channel (human)" test_value=33
compound=CCOc1cccc(CN2CCN(c3cccc(C(F)(F)F)c3)CC2)c1O experimental_target="human ether-à-go-go-related gene (hERG) potassium channel (human)" test_value=-46.6
compound=CCOC(=O)N1CCN(Cc2nc(N)nc(Nc3ccc(C)cc3)n2)CC1 experimental_target="human ether-à-go-go-related gene (hERG) potassium channel (human)" test_value=-57.2

Field: next compound
Reported hERG current change (%, negative = inhibition) at 10uM of O=C(c1cccc(C(F)(F)F)c1)C1CCCN(Cc2ccccc2O)C1 (stereo not shown) : -29

###

# experimental target: human ether-à-go-go-related gene (hERG) potassium channel (human);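 note: peak tail current of the secondary pulse compared with the same well before compound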
# experiment: primary screen, population patch clamp on CHO cells stably expressing hERG; higher = less effect of the substance
Hit rate of the full screen: of about 310,000 compounds, about 14,000 (4.5%) showed an effect of 50% or more. The effect is printed as a negative number. What follows is part of a selection rich in strong results, with near analogues and random picks from the rest.
Reported hERG current change (%, negative = inhibition) at 10uM by item:
Expressed in %, but write only the number.

Reading of hERG current change (%, negative = inhibition) at 10uM for COc1cccc(-c2cc(C(F)(F)F)nc(NCc3ccco3)n2)c1 with human ether-à-go-go-related gene (hERG) potassium channel (human): 18.8

# value of hERG current change (%, negative = inhibition) at 10uM, human ether-à-go-go-related gene (hERG) potassium channel (human), item NC(=O)COc1ccc(-n2cnnn2)cc1 = 32.4

Entry CCCC(=O)Nc1ccc2c(c1)nc(CN1CCCCC1)n2C under human ether-à-go-go-related gene (hERG) potassium channel (human) had hERG current change (%, negative = inhibition) at 10uM of 2.55

For O=C(COc1ccc(-n2cnnn2)cc1)Nc1ccc(F)c(F)c1F on human ether-à-go-go-related gene (hERG) potassium channel (human), measured hERG current change (%, negative = inhibition) at 10uM was 5.48

###

# experimental target: human ether-à-go-go-related gene (hERG) potassium channel (human);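 note: peak tail current of the secondary pulse compared with the same well before compound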
# experiment: primary screen, population patch clamp on CHO cells stably expressing hERG; higher = less effect of the substance
About 14,000 (4.5%) of roughly 310,000 compounds showed an effect of 50% or more. The effect is printed as a negative number. This is one part of a sample in which strong results are shown more often than they occur.
observable: hERG current change (%, negative = inhibition) at 10uM (%)
Respond numerically; units are % and should not be typed.

compound=O=C(NCC1CC1)c1ccccc1Cl experimental_target="human ether-à-go-go-related gene (hERG) potassium channel (human)" test_value=11.6
compound=Cc1cc(C)c(CN2CCC(n3nccc3NC(=O)c3ccccc3Cl)CC2)cc1C experimental_target="human ether-à-go-go-related gene (hERG) potassium channel (human)" test_value=-50.8
compound="CC1CCCN(C(=O)Cn2c3ccccc3c3nc4n(c(=O)c32)CCS4)C1 (stereo not drawn)" experimental_target="human ether-à-go-go-related gene (hERG) potassium channel (human)" test_value=-3.59

Sure, the documented hERG current change (%, negative = inhibition) at 10uM for O=C(Nc1ccnn1C1CCN(Cc2ccccc2)CC1)c1ccccc1Cl is -76.1

Short answer for O=C(Nc1ccnn1C1CCN(C2CCCC2)CC1)c1ccccc1Cl : hERG current change (%, negative = inhibition) at 10uM was -45

Item: CO/N=C/c1cccn1-c1nccc(OC)c1C#N | hERG current change (%, negative = inhibition) at 10uM: 19.1

Measured hERG current change (%, negative = inhibition) at 10uM of COC(=O)C1=C(C)OC(N)=C(C#N)C1c1cc(OC)c(OCC(N)=O)cc1Cl (stereo not drawn) : -10

// recorded hERG current change (%, negative = inhibition) at 10uM for CCCNC(=O)CSc1nc2ccccc2c(=O)n1CCC : 3.3

Data point: C=CCn1c(CCNC(=O)c2ccccc2F)nnc1SCC(=O)Nc1ccc(OC)cc1 ; hERG current change (%, negative = inhibition) at 10uM = 3.94

Notebook: COc1ccccc1/C=C/C(=O)OCC(=O)c1cc(C)n(C)c1C , hERG current change (%, negative = inhibition) at 10uM read as -0.348

Value of measured hERG current change (%, negative = inhibition) at 10uM for the entry COc1ccc(CN(C(=O)c2cnccn2)C(C(=O)NC(C)(C)C)c2cc(OC)c(OC)c(OC)c2)cc1 (stereo not drawn) : 1.58

Consider NC(=S)Nc1ncc(C(F)(F)F)cc1Cl . Its measured hERG current change (%, negative = inhibition) at 10uM is 12.2

The measured hERG current change (%, negative = inhibition) at 10uM associated with Cc1ccccc1C(=O)Nc1ccnn1C1CCN(Cc2ccccn2)CC1 reads -33.9

Briefly, hERG current change (%, negative = inhibition) at 10uM measured for COc1ccc(/C=C(\C#N)C(=O)NC(C)c2ccccc2)cc1O (stereo not drawn) : -24.2

For CCn1c(SCC(=O)N2c3ccccc3CC2C)nnc1-c1ccco1 (stereo not drawn) the compound record lists hERG current change (%, negative = inhibition) at 10uM as -17.6

For reference, reported hERG current change (%, negative = inhibition) at 10uM for CC(C)Nc1ccc(Cl)cc1[N+](=O)[O-] stands at 14.3

# compound O=C(Nc1ccnn1C1CCN(C2CCC2)CC1)c1ccccc1Cl ; its hERG current change (%, negative = inhibition) at 10uM = -63.6

Origin of the recorded values: paper PMC4336329
